Molecular target: STK3 (human) (UniProt Q13188)
Sequence (Q13188 whole entry, looked up): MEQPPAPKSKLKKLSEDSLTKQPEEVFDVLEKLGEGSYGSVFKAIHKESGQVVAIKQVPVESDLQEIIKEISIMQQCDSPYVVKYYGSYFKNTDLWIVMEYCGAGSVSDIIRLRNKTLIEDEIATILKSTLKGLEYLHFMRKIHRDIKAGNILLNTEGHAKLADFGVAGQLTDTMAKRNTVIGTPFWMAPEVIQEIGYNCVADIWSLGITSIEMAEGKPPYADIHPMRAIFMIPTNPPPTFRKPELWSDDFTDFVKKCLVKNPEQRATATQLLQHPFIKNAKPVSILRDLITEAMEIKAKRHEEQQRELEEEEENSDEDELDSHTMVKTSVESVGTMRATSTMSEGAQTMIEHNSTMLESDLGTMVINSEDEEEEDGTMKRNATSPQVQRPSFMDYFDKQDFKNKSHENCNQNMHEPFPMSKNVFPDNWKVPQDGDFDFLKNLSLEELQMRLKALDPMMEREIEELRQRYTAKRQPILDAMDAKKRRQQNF
Assay: KINOMEscan competition binding
Conditions: compound 10.0 µM
Endpoint: kinase still bound, per cent of control (%)
# output: bare number, implied unit %

Example results:
>>> observed("C=CC(=O)Nc1cc(-n2c(=O)ccc3cnc4ccc(-c5cn[nH]c5)cc4c32)ccc1C")
100
>>> observed("C[C@@H](Oc1cc(-c2cnn(C3CCNCC3)c2)cnc1N)c1c(Cl)ccc(F)c1Cl")
0

Entry `N#CCNC(=O)c1ccc(-c2ccnc(Nc3ccc(N4CCOCC4)cc3)n2)cc1` — recorded kinase still bound, per cent of control = 52

----------
Target: UniProtKB P29323
Sequence (P29323 whole entry, looked up): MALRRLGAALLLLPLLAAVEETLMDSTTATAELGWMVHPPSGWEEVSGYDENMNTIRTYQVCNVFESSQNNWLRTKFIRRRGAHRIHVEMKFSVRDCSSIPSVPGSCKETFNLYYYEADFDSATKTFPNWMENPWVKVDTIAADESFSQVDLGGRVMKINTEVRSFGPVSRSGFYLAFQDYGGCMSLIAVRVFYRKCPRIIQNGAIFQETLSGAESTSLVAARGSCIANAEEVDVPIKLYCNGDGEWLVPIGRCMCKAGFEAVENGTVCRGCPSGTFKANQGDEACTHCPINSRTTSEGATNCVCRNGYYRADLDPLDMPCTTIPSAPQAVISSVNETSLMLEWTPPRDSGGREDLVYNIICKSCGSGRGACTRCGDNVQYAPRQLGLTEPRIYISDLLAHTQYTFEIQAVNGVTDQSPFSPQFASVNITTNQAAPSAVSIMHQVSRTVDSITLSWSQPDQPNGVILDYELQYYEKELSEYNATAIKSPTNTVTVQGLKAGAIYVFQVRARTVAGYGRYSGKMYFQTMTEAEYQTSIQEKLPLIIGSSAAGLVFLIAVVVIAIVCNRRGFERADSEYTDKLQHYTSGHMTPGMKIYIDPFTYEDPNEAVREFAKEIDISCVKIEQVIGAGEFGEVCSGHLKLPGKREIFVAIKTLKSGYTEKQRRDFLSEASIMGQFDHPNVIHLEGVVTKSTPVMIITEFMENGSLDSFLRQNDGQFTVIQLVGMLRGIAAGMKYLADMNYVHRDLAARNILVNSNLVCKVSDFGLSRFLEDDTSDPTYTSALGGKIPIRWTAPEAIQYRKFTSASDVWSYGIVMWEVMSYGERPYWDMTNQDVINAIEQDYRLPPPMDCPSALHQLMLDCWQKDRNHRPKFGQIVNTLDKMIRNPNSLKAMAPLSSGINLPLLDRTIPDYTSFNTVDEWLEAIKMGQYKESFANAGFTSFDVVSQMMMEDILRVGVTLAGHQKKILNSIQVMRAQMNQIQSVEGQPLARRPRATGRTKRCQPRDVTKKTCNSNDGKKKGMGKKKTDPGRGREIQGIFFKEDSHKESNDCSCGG
Assay: KINOMEscan competition binding
Settings: compound 10.0 µM
Endpoint: kinase still bound, per cent of control (%)
# output: bare number, implied unit %

>>> observed("C[C@@H](Oc1cc(-c2cnn(C3CCNCC3)c2)cnc1N)c1c(Cl)ccc(F)c1Cl")
24
>>> observed("COc1cc2ncn(-c3cc(OCc4ccccc4C(F)(F)F)c(C(N)=O)s3)c2cc1OC")
94
>>> observed("Cc1n[nH]c2ccc(-c3cncc(OC[C@@H](N)Cc4c[nH]c5ccccc45)c3)cc12")
100
>>> observed("O=C1NC(=O)/C(=C/c2ccc3nccc(-c4ccncc4)c3c2)S1")
86
>>> observed("O=C(Nc1cccc(Nc2ncc(Br)c(NCCc3cnc[nH]3)n2)c1)N1CCCC1")
100

Entry `CCN(CC)CCCCNc1ncc2c(n1)N(C)C(=O)N(c1c(Cl)c(OC)cc(OC)c1Cl)C2` — recorded kinase still bound, per cent of control = 100

Entry `NC(=O)Nc1cc(-c2cccc(F)c2)sc1C(=O)N[C@@H]1CCCNC1` — recorded kinase still bound, per cent of control = 9.6

Entry `N#CCNC(=O)c1ccc(-c2ccnc(Nc3ccc(N4CCOCC4)cc3)n2)cc1` — recorded kinase still bound, per cent of control = 100
